Values were extracted from patent US20100280061A1.

# Percent inhibition of FITC-NLX binding, 0.1 μM per entry
target: Bn-VAKGL pentapeptide of filamin A (FLNA) (Homo sapiens, UniProt P21333); assay: FITC-NLX-based FLNA screening assay (FLNA peptide binding assay); details: 0.1 μM compound, 10 nM FITC-NLX
Property: Percent inhibition of FITC-NLX binding, 0.1 μM (%)

[
  {
    "Compound": "COc1cc(OC)cc(C(=O)CC2c3c(cc4c(c3OC)OCO4)CC[N+]2(C)C)c1.[I-] (stereo not drawn)",
    "Numeric Result": 44.7
  },
  {
    "Compound": "COc1cccc(CCC(=O)CC2c3c(cc4c(c3OC)OCO4)CC[N+]2(C)C)c1 (stereo not drawn)",
    "Numeric Result": 54.2
  },
  {
    "Compound": "COc1ccc(C(=O)CC2c3c(cc4c(c3OC)OCO4)CC[N+]2(C)C)c(O)c1.[I-] (stereo not drawn)",
    "Numeric Result": 46.8
  },
  {
    "Compound": "COc1c2c(cc3c1C(CC(=O)Cc1ccc(Br)cc1)[N+](C)(C)CC3)OCO2 (stereo not drawn)",
    "Numeric Result": 50.3
  },
  {
    "Compound": "COc1ccc(OC)c(CCC(=O)CC2c3c(cc4c(c3OC)OCO4)CC[N+]2(C)C)c1 (stereo not drawn)",
    "Numeric Result": 39.5
  },
  {
    "Compound": "COc1ccc(CC(=O)CC2c3c(cc4c(c3OC)OCO4)CC[N+]2(C)C)c(OC)c1 (stereo not drawn)",
    "Numeric Result": 42.9
  },
  {
    "Compound": "COc1ccccc1CC(O)CC1c2c(cc3c(c2OC)OCO3)CCN1C (stereo not drawn)",
    "Numeric Result": 50.5
  },
  {
    "Compound": "COc1ccc(C(=O)CC2c3c(cc4c(c3OC)OCO4)CC[N+]2(C)C)cc1OC.[I-] (stereo not drawn)",
    "Numeric Result": 43.3
  },
  {
    "Compound": "COc1cccc(CC(=O)CC2c3c(cc4c(c3OC)OCO4)CC[N+]2(C)C)c1OC (stereo not drawn)",
    "Numeric Result": 50.1
  }
]

====

biological target: mu opiate receptor (MOR) (Rattus norvegicus); construct: from tissue; host or cells: striatal tissue (membrane preparation); test: [35S]GTPγS binding assay using striatal membranes (MOR agonist activity); assay type: biochemical; design: reference not given here; conditions: 1 μM compound, striatal membranes
Sequence (P33535 whole entry): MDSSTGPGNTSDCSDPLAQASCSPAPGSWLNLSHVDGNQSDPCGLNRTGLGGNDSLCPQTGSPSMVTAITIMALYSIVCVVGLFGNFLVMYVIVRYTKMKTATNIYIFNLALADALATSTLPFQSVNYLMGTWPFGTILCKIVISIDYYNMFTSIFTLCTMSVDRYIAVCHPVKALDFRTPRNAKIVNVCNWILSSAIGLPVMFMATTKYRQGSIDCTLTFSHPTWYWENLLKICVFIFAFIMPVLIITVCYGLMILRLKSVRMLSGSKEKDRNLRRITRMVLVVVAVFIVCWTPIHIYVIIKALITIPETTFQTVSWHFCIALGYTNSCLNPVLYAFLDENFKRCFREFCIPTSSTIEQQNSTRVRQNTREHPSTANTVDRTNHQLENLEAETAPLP
Label Criterion met when MOR agonist activity, [35S]GTPγS binding to Gαo, 1 μM is strictly below 200%; at or above that, label Criterion not met.

[
  {
    "Compound": "COc1ccc(CCC(=O)CC2c3c(cc4c(c3OC)OCO4)CC[N+]2(C)C)c(OC)c1 (stereo not drawn)",
    "Category": "Criterion not met"
  },
  {
    "Compound": "COc1cccc(CCC(=O)CC2c3c(cc4c(c3OC)OCO4)CC[N+]2(C)C)c1 (stereo not drawn)",
    "Category": "Criterion not met"
  },
  {
    "Compound": "COc1cccc(OC)c1C(=O)CC1c2c(cc3c(c2OC)OCO3)CC[N+]1(C)C.[I-] (stereo not drawn)",
    "Category": "Criterion not met"
  },
  {
    "Compound": "COc1c2c(cc3c1C(CC(=O)/C=C/c1ccc(Cl)cc1)[N+](C)(C)CC3)OCO2 (stereo not drawn)",
    "Category": "Criterion not met"
  },
  {
    "Compound": "COc1ccccc1CC(=O)CC1c2c(cc3c(c2OC)OCO3)CC[N+]1(C)C (stereo not drawn)",
    "Category": "Criterion not met"
  },
  {
    "Compound": "COc1cccc(OC)c1CC(=O)CC1c2c(cc3c(c2OC)OCO3)CC[N+]1(C)C.[I-] (stereo not drawn)",
    "Category": "Criterion met"
  },
  {
    "Compound": "COc1ccc(CCC(O)CC2c3c(cc4c(c3OC)OCO4)CCN2C)cc1 (stereo not drawn)",
    "Category": "Criterion not met"
  },
  {
    "Compound": "COc1ccccc1CC(O)CC1c2c(cc3c(c2OC)OCO3)CC[N+]1(C)C.[I-] (stereo not drawn)",
    "Category": "Criterion not met"
  },
  {
    "Compound": "COc1c2c(cc3c1C(CC(O)Cc1ccccc1C)N(C)CC3)OCO2 (stereo not drawn)",
    "Category": "Criterion met"
  },
  {
    "Compound": "COc1ccc(C(=O)CC2c3c(cc4c(c3OC)OCO4)CC[N+]2(C)C)cc1 (stereo not drawn)",
    "Category": "Criterion not met"
  },
  {
    "Compound": "COc1c2c(cc3c1C(CC(=O)Cc1ccccc1C)[N+](C)(C)CC3)OCO2 (stereo not drawn)",
    "Category": "Criterion not met"
  },
  {
    "Compound": "COc1ccc(C(=O)CC2c3c(cc4c(c3OC)OCO4)CC[N+]2(C)C)c(F)c1.[I-] (stereo not drawn)",
    "Category": "Criterion not met"
  },
  {
    "Compound": "COc1ccc(CCC(=O)CC2c3c(cc4c(c3OC)OCO4)CC[N+]2(C)C)cc1OC.[I-] (stereo not drawn)",
    "Category": "Criterion met"
  },
  {
    "Compound": "COc1c2c(cc3c1C(CC(=O)Cc1ccc(Br)cc1)[N+](C)(C)CC3)OCO2 (stereo not drawn)",
    "Category": "Criterion not met"
  },
  {
    "Compound": "COc1c2c(cc3c1C(CC(O)CCc1ccccc1)[N+](C)(C)CC3)OCO2 (stereo not drawn)",
    "Category": "Criterion met"
  },
  {
    "Compound": "COc1c2c(cc3c1C(CC(=O)c1cccc(C(F)(F)F)c1)[N+](C)(C)CC3)OCO2 (stereo not drawn)",
    "Category": "Criterion met"
  }
]
